Property: IC50; scope: individual molecules
Target: ER (Homo sapiens, UniProt P03372)
Construct: transfected in MCF7 cells (containing endogenous ER); endogenous in cells; host or cells: MCF7 cells
Sequence (P03372 whole entry): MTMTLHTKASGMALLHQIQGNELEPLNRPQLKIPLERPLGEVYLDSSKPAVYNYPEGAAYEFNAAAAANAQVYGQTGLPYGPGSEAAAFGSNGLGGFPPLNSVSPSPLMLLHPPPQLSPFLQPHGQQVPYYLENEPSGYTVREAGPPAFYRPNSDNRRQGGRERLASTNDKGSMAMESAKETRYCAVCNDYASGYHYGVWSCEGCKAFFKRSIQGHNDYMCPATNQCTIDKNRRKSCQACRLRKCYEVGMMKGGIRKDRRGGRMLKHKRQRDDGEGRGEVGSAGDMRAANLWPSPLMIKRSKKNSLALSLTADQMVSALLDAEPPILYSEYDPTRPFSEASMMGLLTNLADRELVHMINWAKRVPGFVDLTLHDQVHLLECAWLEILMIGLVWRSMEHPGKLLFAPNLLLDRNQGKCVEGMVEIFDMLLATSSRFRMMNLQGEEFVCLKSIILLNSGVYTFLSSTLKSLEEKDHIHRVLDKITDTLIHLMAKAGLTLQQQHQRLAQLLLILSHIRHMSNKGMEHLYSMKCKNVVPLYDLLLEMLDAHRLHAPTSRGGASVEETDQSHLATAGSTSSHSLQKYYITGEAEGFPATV
Assay: ER transcription assay (MCF7 cells), ERE-luciferase reporter
Type: cell-based
Conditions: comparison of groups at the X position; read-out: IC50 MCF7 μM (antagonist activity)

Example entries and their recorded answers appear below.
1. O=C(O)/C=C/c1ccc(-c2c(-c3ccc(O)cc3)sc3cc(O)ccc23)cc1 [reference compound] : > 10 µM
2. O=C(O)/C=C/c1ccc(Oc2c(-c3ccc(O)cc3)sc3cc(O)ccc23)cc1 : 0.748 µM

API: the following record is the query input.
q: # get_value(readout='IC50', item= O=C(O)/C=C/c1ccc(C(=O)c2c(-c3ccc(O)cc3)sc3cc(O)ccc23)cc1 [reference compound] )
a: > 10 µM
